Test system: PPARa:RXRa (NR concentration 270 nM, RXRa partner concentration 90 nM)
Assay: PBM binding z-score (relative to random genomic background probes); higher = stronger binding; sequences stand for … in GC…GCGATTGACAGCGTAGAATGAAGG
PARAMETER: PBM binding z-score
No unit in the answer, only the number.

Worked cases, PBM binding z-score given:
# SEQUENCE_INPUT, PARAMETER, READING
measured = [
    ("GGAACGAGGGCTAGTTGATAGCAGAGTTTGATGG", "PBM binding z-score", -0.745),
    ("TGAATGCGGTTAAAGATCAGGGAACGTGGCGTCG", "PBM binding z-score", 1.25),
]

Next sequence, PBM binding z-score to be filled in.
What does the data say about its PBM binding z-score? Entry: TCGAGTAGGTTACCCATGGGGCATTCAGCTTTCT 1.09

###

Tested on: RARa homodimer (NR concentration 270 nM)
Assay: PBM binding z-score (relative to random genomic background probes); higher = stronger binding; sequences stand for … in GC…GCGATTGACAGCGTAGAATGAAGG
Outcome label depends on PBM binding z-score relative to 0.3: at/above gives 1.0, below gives 0.0.

Reference set, count: 5
# SEQUENCE_INPUT, LABEL
rows = [
    ("TCTCGGAGGACATGAAAGGTCAGAGCTCGACATC", 1.0),
    ("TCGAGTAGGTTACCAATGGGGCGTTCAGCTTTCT", 0.0),
    ("CGAACTAGGTCATTGACAGGCCAGTGAATAGTAA", 0.0),
    ("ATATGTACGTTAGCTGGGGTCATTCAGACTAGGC", 1.0),
    ("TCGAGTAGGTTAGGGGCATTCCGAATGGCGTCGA", 0.0),
]

// inclusive: PBM binding z-score at least 0.3? input: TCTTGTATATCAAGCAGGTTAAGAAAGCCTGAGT 0.0

Quick one: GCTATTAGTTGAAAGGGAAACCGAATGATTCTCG 1.0

Follow-up entry: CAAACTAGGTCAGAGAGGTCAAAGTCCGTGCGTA 1.0

Another sequence to look at: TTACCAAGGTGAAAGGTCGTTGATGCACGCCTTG 0.0

Request: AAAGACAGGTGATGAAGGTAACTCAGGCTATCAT 1.0

Same thing, different sequence: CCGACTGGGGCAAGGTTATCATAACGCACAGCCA 0.0

Then this sequence: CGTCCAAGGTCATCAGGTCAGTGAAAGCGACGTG 1.0

Quick one: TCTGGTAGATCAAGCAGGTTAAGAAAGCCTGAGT 0.0

// next record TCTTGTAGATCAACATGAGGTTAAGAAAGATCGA 0.0

Try this sequence next: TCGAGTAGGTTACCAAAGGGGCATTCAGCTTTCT 0.0

Then what about the sequence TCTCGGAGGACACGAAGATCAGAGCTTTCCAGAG ? 0.0

###

Test system: LXRa homodimer (NR concentration 270 nM)
Assay: PBM binding z-score (relative to random genomic background probes); higher = stronger binding; sequences stand for … in GC…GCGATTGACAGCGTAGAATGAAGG
Label rule, in plain words: PBM binding z-score of -0.1 and up is Condition met, under -0.1 is Condition not met.

# SEQUENCE_INPUT, LABEL
records = [
    ("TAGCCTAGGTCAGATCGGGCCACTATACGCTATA", "Condition not met"),
]

Does the sequence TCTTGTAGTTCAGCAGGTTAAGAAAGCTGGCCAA have recorded PBM binding z-score that is -0.1 or more? Condition met

Can you check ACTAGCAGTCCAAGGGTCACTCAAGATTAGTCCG next? Condition met

Then this sequence: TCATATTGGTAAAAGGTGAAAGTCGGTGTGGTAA Condition met

Another sequence to check: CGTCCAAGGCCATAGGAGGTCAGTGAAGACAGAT Condition met

And for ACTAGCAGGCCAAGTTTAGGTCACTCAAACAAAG ? Condition met

Also need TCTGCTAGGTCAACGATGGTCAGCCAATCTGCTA , thanks. Condition met

Okay, and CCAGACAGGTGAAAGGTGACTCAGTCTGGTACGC ? Condition met

Another sequence: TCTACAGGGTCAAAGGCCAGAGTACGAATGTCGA Condition met

Queued: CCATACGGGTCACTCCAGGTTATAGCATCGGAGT Condition met

Check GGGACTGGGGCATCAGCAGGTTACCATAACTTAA too. Condition met

Here is the next sequence: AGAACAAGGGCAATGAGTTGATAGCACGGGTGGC Condition not met
